The entries below are paired with their reported Kd.
- EXPERIMENTAL SYSTEM: Su(dx) WW4 (F549W) mutant domain (Drosophila, UniProt Q9Y0H4 515-557, F549W)
- Sequence (Q9Y0H4 515-557 F549W): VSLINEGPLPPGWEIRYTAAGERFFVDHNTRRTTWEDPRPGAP
- PROCEDURE DETAILS: ITC
MEASURED QUANTITY: Kd (µM)

binder="AKQPPSYEDCIK [Notch PY motif peptide N1]" assay_result=15
binder="GPPPPPYPG [WBP1 peptide]" assay_result=31

src = paper PMC4244684
